Form field: inhibition (one value per entry).
assay: growth suppression of yeast trafficking mutant, preliminary HTS, modulators of trafficking downstream of Golgi apparatus project, 1536-format plate, OD 615 nm (AID 637); conditions: yeast transport mutant growth, absorbance 615 nm, 18 h; hits give high values; also: test concentration not given here
Give just the numeric value; % need not be written.

molecule	readout.unit	inhibition
O=C(CN(c1ccc(F)cc1)S(=O)(=O)c1ccc2c(c1)OCCO2)Nc1cccnc1	%	-3.82
CS(=O)(=O)NCC(c1cccnc1)N1CCN(c2ccc(F)cc2)CC1 (configuration not stated)	%	-3.45
COc1ccc(C2/C(=C(/O)c3ccc(OC(C)C)cc3)C(=O)C(=O)N2CCCN2CCOCC2)cc1 (configuration not stated)	%	-1.09
CCC(=O)c1ccc(O)cc1	%	3.33

Which value of inhibition has been reported for O=C(CN1CCC(O)(c2ccc3c(c2)OCO3)CC1)OC1CCCCC1 in the records?
2.73

And Clc1ccc(-c2nnc3sc(-c4ccc(Br)o4)nn23)cc1 ?
5.87
